B1: mRNA-splicing (parent)
chain: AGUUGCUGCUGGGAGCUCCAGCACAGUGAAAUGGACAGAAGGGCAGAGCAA

Variants of: B1
Assay Overview: exon inclusion enrichment index; higher = more inclusion; WT1 exon 5 minigene, HEK293
Kindly state exon inclusion enrichment index for each of the entries shown.
Numbers only.

Example entries begin here.
AGUUUCUUUUGGGAGCUCCAGCACAGUGAAAUGGACAGAGUGGCAGAGCAA	0.107
AGCCGCUGCUGGGAGCUCCAGCACAGUGAAAUGGACAGAAGGGCAGAGCAA	0.208
AGUUUCUUUUGGGAGCUUUAGCACAGUGAAAUGGACAGAAGGGCAGAGCAA	0.000815
AGUUCACACAGGGAGCUCCAGCACAGUGAAAUGGACAGAAGUACAGAGCAA	0.386
AGUUAGGGAUGGGAGCUCCAGCACAGUGAAAUGGCGAGAAGGGCAGAGCAA	0.00118

# batch size: 2; output exon inclusion enrichment index per entry
1. AGUUAUAUAUGGGAGCUCCAGCACAGUGAAAUGGACCGAAGGGCAGAGCAA
2. AGUUGAAGAAGGGAGCUCGAGCACAGUGAAAUGGACAGAAGGGCAGAGCAA

Response given:
1. 0.285
2. 0.576

Please look at the items below and tell me exon inclusion enrichment index for each one, in order.
1. AGUUGCUGCUGGGAGCUCCAGCACAGUGCGAUGGACAGAAGGGCAGAGCAA
2. AGUUCUUCUCGGGAGCUCCAGCACAGUGAAAUGCUCAGAAGGGCAGAGCAA
3. AGUUCGCGCCGGGAGCUCCAGCACAGUGAAAUGGACAUCAGGGCAGAGCAA
4. AGCGCGCGCCGGGAGCUCCAGCACAGUGAAAUGGACAGAAGGGCAGAGCAA
5. AGUUUCUUUUGGGAGCUACAGCACAGUGAAAUGGACAGAAGGGCAGAGCAA
6. AGUUCUUCUCGGGAGCUCCAGUACAGUGAAAUGGACAGAAGGGCAGAGCAA
7. AGUUCGCGCCGGGAGCUCCAGCACAGUGAAAUGGACAUGAGGGCAGAGCAA
8. AGGUACCACCGGGAGCUCCAGCACAGUGAAAUGGACAGAAGGGCAGAGCAA

Response given:
1: 0.677; 2: 0.385; 3: 3.03; 4: 1.31; 5: 0.0931; 6: 1.44; 7: 2.02; 8: 0.68
